- Test system: NCI/ADR-RES
- assay-details: NCI tumour cell line growth inhibition, 48 h
Activity calls are given as the source filed them. Rule as the data show it: active = GI50 up to about 1.1 µM and inactive = higher.
Labels: class 1 (active), class 0 (inactive)

compound	measured-on	assigned-label
C(=N\Cc1ccccc1)/c1ccccc1-c1ccccc1/C=N/Cc1ccccc1	NCI/ADR-RES	class 0
Nc1ccc2c(c1)C(=O)c1ccc(F)cc1-2	NCI/ADR-RES	class 0
CCOC(=O)CSc1nnc(C(Sc2nc(-c3ccccc3)c(-c3ccccc3)[nH]2)C(C)C)n1-c1ccccc1 (centres undefined)	NCI/ADR-RES	class 0
C[C@@H]1C[C@@H](O)[C@]2(O)O[C@@H]3C[C@@]4(C=O)[C@@H](CC[C@@H]5[C@@H]4CC[C@]4(C)[C@@H](C6=CC(=O)OC6)CC[C@]54O)C[C@H]3O[C@@H]2O1	NCI/ADR-RES	class 1
